// provenance: patent US4239767A

Tested on: Trich. ment.
Entries and their MIC values follow.
Express it in µg/mL; write the number only.

Below: 2 compounds and their reported MIC.
CC(C)(C)C(=O)C(Oc1c(Cl)cc(-c2ccc(Br)cc2)cc1Cl)n1ccnc1 (stereo not shown) [drawing 11] | 4
CC(C)(C)C(=O)C(Oc1c(Cl)cc(-c2ccc(Br)cc2)cc1Br)n1ccnc1 (stereo not shown) [drawing 14] | 8

Consider the record given below.
Prompt: Fill blank: measured MIC of the compound CC(C)(C)C(=O)C(Oc1ccc(S(=O)(=O)c2ccccc2)cc1)n1ccnc1 (stereo not shown) [drawing 13] is ____.
Completion: 64

* * *

Please consider the recorded MIC for Torulopsis glab. in what follows.
A number alone suffices; assume µg/mL.

// solved cases for MIC follow
CC(C)(C)C(O)C(Oc1ccc(-c2ccc(Cl)cc2)cc1)n1ccnc1 (stereo not shown) [drawing 8] | 4
CC(C)(C)C(O)C(Oc1ccc(S(=O)(=O)c2ccccc2)cc1)n1ccnc1 (stereo not shown) [drawing 10] | 4
CC(C)(C)C(=O)C(Oc1ccc(S(=O)(=O)c2ccccc2)cc1)n1ccnc1 (stereo not shown) [drawing 13] | 2
CC(C)(C)C(O)C(Oc1ccc(Cc2ccccc2)cc1)n1ccnc1 (stereo not shown) [drawing 9] | 4
CC(C)(C)C(=O)C(Oc1c(Cl)cc(-c2ccc(Br)cc2)cc1Br)n1ccnc1 (stereo not shown) [drawing 14] | 4
CC(C)(C)C(=O)C(Oc1ccc(Cc2ccccc2)cc1)n1ccnc1 (stereo not shown) [drawing 12] | 4

Prompt: Fill in: MIC of CC(C)(C)C(=O)C(Oc1c(Cl)cc(-c2ccc(Br)cc2)cc1Cl)n1ccnc1 (stereo not shown) [drawing 11] is ___
Completion: 2

* * *

// reported Therapeutic activity, candidosis, % survival per item
Test system: candidosis
Assay: in vivo action on oral administration, candidosis of mice
Settings: 100 mg/kg of body weight, twice daily, Control 5
Answer in %, number only, no unit symbol.

Observe how each entry below is paired with its result.
CC(C)(C)C(=O)C(Oc1ccc(Cc2ccccc2)cc1)n1ccnc1 (stereo not shown) [drawing 19] | 50
CC(C)(C)C(O)C(Oc1ccc(S(=O)(=O)c2ccccc2)cc1)n1ccnc1 (stereo not shown) [drawing 17] | 80
CC(C)(C)C(=O)C(Oc1c(Cl)cc(-c2ccc(Br)cc2)cc1Br)n1ccnc1 (stereo not shown) [drawing 21] | 40

Prompt: # Therapeutic activity, candidosis, % survival lookup, item CC(C)(C)C(=O)C(Oc1ccc(S(=O)(=O)c2ccccc2)cc1)n1ccnc1 (stereo not shown) [drawing 20]
Completion: 80

* * *

Items are presented alongside their recorded Therapeutic activity, candidosis, % survival.
System: candidosis
Assay: in vivo action on oral administration, candidosis of mice
Conditions: 100 mg/kg of body weight, twice daily, Control 5
Could you give me the number in %? Just the number is fine.

For orientation, consider the following solved cases.
CC(C)(C)C(=O)C(Oc1c(Cl)cc(-c2ccc(Br)cc2)cc1Cl)n1ccnc1 (stereo not drawn) [drawing 18] | 50
CC(C)(C)C(O)C(Oc1ccc(-c2ccc(Cl)cc2)cc1)n1ccnc1 (stereo not drawn) [drawing 15] | 80

As a next step, examine the molecule that follows.
Prompt: Would you kindly share the measured Therapeutic activity, candidosis, % survival for CC(C)(C)C(O)C(Oc1ccc(Cc2ccccc2)cc1)n1ccnc1 (stereo not drawn) [drawing 16] ?
Completion: 60
